# EXPERIMENT: CREB reporter modulators under forskolin, primary screen, cell-based, PC12, CRE-LacZ reporter, forskolin-stimulated (AID 1146);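 further: PC12 cells with 6xCRE LacZ reporter stimulated by forskolin 10 µM; beta-galactosidase reporter signal reflecting CREB driven transcription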
# TEST SETTINGS: luminescence, 4.5 h, higher = more signal, called active from +8 up or from −8 down
PROPERTY NAME: z-score

INSERT INTO assay_data (compound, result_value) VALUES
  ('O=C1NC(=O)C2C1C=CC(C(O)c1ccc(F)cc1)N2Nc1ccccn1 (configuration not stated)', 0.0662),
  ('[N-]=[N+]=NCc1ccccc1C[C@]1(C(=O)O)COC(c2ccc(OCCCO)cc2)=N1', -0.916),
  ('CCCCC(=C=CC[C@@H](O)c1ccc(OCCO)cc1)C[C@@H](O)c1ccccn1', -0.0387),
  ('CN(C)CCCC[C@@H]1NC(=O)[C@H]2C[C@@H](C(=O)NCc3ccc(F)cc3)[C@@H](c3ccc(O)cc3)N2C1=O', -0.19),
  ('COC(=O)[C@@]1(Cc2ccc(F)cc2)[C@H]2c3cc(C(=O)N4CCCC4)n(CCO)c3C[C@H]2CN1C(=O)c1ccccc1', -0.773),
  ('COCC(=C=CC[C@@H](O)c1ccc(OCCO)cc1)C[C@@H](O)COCc1ccccc1', -0.487),
  ('CCOC(=O)C[C@H]1[C@H](OC(=O)Cc2ccc3c(c2)OCO3)[C@@H](NC(=O)c2ccccc2)c2cc(OCCCO)ccc2N1C(=O)Cc1ccc(OC)cc1', -0.789);

* * *

# Test system: Sonic hedgehog protein (Shh)
# EXPERIMENT: small-molecule binders of Shh protein, primary screen, biochemical, small-molecule microarray, 635/667 nm fluorescence (AID 1151);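 further: Shh protein binding to compounds spotted on small-molecule microarray slides; score combines spot fluorescence intensity with signal-to-noise across triplicate slides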
# TEST SETTINGS: small-molecule microarray binding, 635 nm fluorescence; higher = more signal
composite z-score for assorted compounds
PROPERTY NAME: composite z-score

INSERT INTO assay_data (compound, property_name, result_value) VALUES
  ('COC(=O)C1=CC(CCCO)=CC(C2CC2)N(Cc2cccc(OC(F)(F)F)c2)C=C1C(=O)OC (stereo unspecified)', 'composite z-score', -0.153),
  ('C=CCC(OC(C)=O)[C@@H]1[C@@H](N(Cc2ccc(-c3ccccc3)cc2)C(=O)c2ccc(-c3ccccc3)cc2)c2cc(OCCCO)ccc2N1C(=O)c1ccc2ccccc2n1 (stereo partly specified)', 'composite z-score', 0.767),
  ('CCCC[C@@H]1C[C@H]1[C@@H](NC(=O)Cc1ccccc1)c1ccc(Cl)cc1', 'composite z-score', -0.22),
  ('CCOC(=O)C[C@H]1[C@H](OC(=O)Cc2ccc3c(c2)OCO3)[C@@H](NC(=O)c2ccccc2)c2cc(OCCCO)ccc2N1C(=O)Cc1ccc(OC)cc1', 'composite z-score', -0.256),
  ('COC(=O)[C@@]1(Cc2ccc(F)cc2)[C@H]2c3cc(C(=O)N(C)C)n(CCn4cc([N+](=O)[O-])nc4C)c3C[C@H]2CN1C(=O)c1ccccc1', 'composite z-score', -0.755),
  ('COCCOC(=O)N1C(=O)[C@@]2(c3cc(C#Cc4ccc(OC)cc4)ccc31)[C@H](c1ccc(OCCO)cc1)N1[C@H](c3ccccc3)[C@H](c3ccccc3)OC(=O)[C@H]1[C@@H]2C(=O)N1CCCCCCC1', 'composite z-score', 2.02);

* * *

# System: Lefty1
# EXPERIMENT: Lefty1 binders on small-molecule microarrays, primary screen, biochemical, small-molecule microarray, 635/667 nm fluorescence (AID 1139)
# TEST SETTINGS: small-molecule microarray binding, fluorescence 635/667; higher = more signal
Entries are sorted into classes by composite z-score as follows: A (below 0.2), B (0.2 to below 0.7), C (0.7 or more)

INSERT INTO assay_data (molecule, classification) VALUES
  ('CCOC(=O)C1=C(C(=O)OCC)N(S(=O)(=O)CC[Si](C)(C)C)[C@H](c2ccccc2)CC1', 'B'),
  ('C=CCC(OC(C)=O)[C@@H]1[C@@H](N(Cc2ccc(-c3cccc(C(F)(F)F)c3)o2)C(=O)c2cccc3ccccc23)c2cc(OCCCO)ccc2N1C(=O)c1ccc2ccccc2n1 (some centres undefined)', 'B'),
  ('COCCOC(=O)N1C(=O)[C@@]2(c3cc(C#CCCO)ccc31)[C@H](C(=O)N1CCc3cc(OC)c(OC)cc3C1)[C@H]1C(=O)O[C@H](c3ccccc3)[C@H](c3ccccc3)N1[C@@H]2c1ccccc1OCCO', 'C'),
  ('N#Cc1ccc(C(O)C2C=CC3C(=O)N(c4ccccc4)C(=O)C3N2Nc2ccc([N+](=O)[O-])cc2)cc1 (centres undefined)', 'A'),
  ('[N-]=[N+]=NCc1ccccc1C[C@]1(C(=O)N2CCOCC2)N=C(c2ccc(OCCCO)cc2)O[C@H]1c1ccccc1CN=[N+]=[N-]', 'A'),
  ('N[C@@H](Cc1ccccc1)Cn1cc(C2(O)CCCCC2)nn1', 'B'),
  ('CN(C)CCCC[C@@H]1NC(=O)[C@H]2C[C@@H](C(=O)NCc3ccc(F)cc3)[C@@H](c3ccc(O)cc3)N2C1=O', 'C'),
  ('CC(=O)n1cc(C(O)C2C=CC3C(=O)N(c4ccccc4)C(=O)C3N2Nc2ccccc2F)c2ccccc21 (centres undefined)', 'A'),
  ('CN1C(=O)[C@]2(CCC(=O)OC(C)(C)C)N=C(c3ccc(OCCCO)cc3)O[C@@H]2c2ccccc21', 'C'),
  ('CCOC(=O)C1=C[C@@H](C(C)(C)C)N(S(=O)(=O)c2ccc(C)cc2)[C@H]1c1ccccc1Cl', 'B'),
  ('CC(C)C(=C=CC[C@@H](O)c1ccccc1OCCO)C[C@@H](O)c1cc(Cl)cc(Cl)c1O', 'C'),
  ('Cc1ccc(F)cc1S(=O)(=O)N[C@@H]1CCN(Cc2ccc3c(c2)OCO3)C1', 'B'),
  ('O=C1c2ccccc2[C@](Cc2ccccc2I)(C(=O)O)[C@H](c2ccc(CO)cc2)N1Cc1ccccc1', 'A'),
  ('CC(C)C[C@@H]1NC(=O)C([C@@H](C)OCc2ccccc2)NC(=O)[C@@]23C(=O)N[C@@H](Cc4ccccc4)C2[C@H](C)[C@@]2(C)O[C@H]2C3/C=C/CC/C=C/CNC1=O (some centres undefined)', 'B'),
  ('COc1ccc(CCNC(=O)[C@@]2(C)c3ccccc3C(=O)N(Cc3cc(C(F)(F)F)cc(C(F)(F)F)c3)[C@H]2c2ccc(CO)cc2)cc1', 'A'),
  ('O=C(NCC(F)(F)F)[C@@H]1c2ccccc2C(=O)N(CC23CC4CC(CC(C4)C2)C3)[C@H]1c1ccc(CO)cc1', 'C'),
  ('COCCOC(=O)N1C(=O)[C@@]2(c3cc(C#CC4=CCCCC4)ccc31)[C@H](C(=O)N1CCN(c3ncccn3)CC1)[C@H]1C(=O)O[C@H](c3ccccc3)[C@H](c3ccccc3)N1[C@@H]2c1ccccc1OCCO', 'C'),
  ('O=C1N(CCS(=O)(=O)c2ccccc2)c2ccccc2[C@@H]2OC(c3ccc(OCCCO)cc3)=N[C@]12CCS(=O)(=O)c1ccccc1', 'B'),
  ('C=CCN1C(=O)[C@]2(O[C@H](CCO)[C@@H]([Si](C)(C)c3ccc(OC)cc3)[C@@H]2C)c2ccccc21', 'A');

Taken from PubChem BioAssay.
